Target: T1, GAL4 BD-ZapD fusion (E. coli, UniProt P36680 1-247)
T1 construct: ZapD, Z-ring stabilizer of E. coli; also called pDEST-GBKT7-zapD; source: yeast two-hybrid fusion (pDEST-GBKT7-zapD in S. cerevisiae PJ69-4A, diploid after mating)
T1 sequence (looked up): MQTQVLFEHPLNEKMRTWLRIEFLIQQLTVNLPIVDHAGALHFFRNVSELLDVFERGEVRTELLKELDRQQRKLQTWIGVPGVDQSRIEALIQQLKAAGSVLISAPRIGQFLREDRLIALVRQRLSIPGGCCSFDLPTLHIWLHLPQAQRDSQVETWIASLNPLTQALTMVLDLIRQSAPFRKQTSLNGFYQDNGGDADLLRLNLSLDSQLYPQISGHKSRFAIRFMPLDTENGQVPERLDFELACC
Test: two-hybrid; GAL4 BD-ZapD with GAL4 AD-FtsZ fusions in diploid yeast grown in YNB (-Leu-Trp) at 30°C; beta-galactosidase activity in Miller units, mean of 10 independent trials
Conditions: partners not purified
MEASUREMENT_KIND: β-galactosidase activity

Recorded result, GAL4 AD-FtsZ(RQAR) fusion (natural protein, E. coli, UniProt P0A9A6 1-383, looked up, FtsZ of E. coli with the native CTV KQAD replaced by RQAR (net-positive); source: yeast two-hybrid fusion (pDEST-GADT7-ftsZ(RQAR) in S. cerevisiae SL3004, diploid after mating)) MFEPMELTNDAVIKVIGVGGGGGNAVEHMVRERIEGVEFFAVNTDAQALRKTAVGQTIQIGSGITKGLGAGANPEVGRNAADEDRDALRAALEGADMVFIAAGMGGGTGTGAAPVVAEVAKDLGILTVAVVTKPFNFEGKKRMAFAEQGITELSKHVDSLITIPNDKLLKVLGRGISLLDAFGAANDVLKGAVQGIAELITRPGLMNVDFADVRTVMSEMGYAMMGSGVASGEDRAEEAAEMAISSPLLEDIDLSGARGVLVNITAGFDLRLDEFETVGNTIRAFASDNATVVIGTSLDPDMNDELRVTVVATGIGMDKRPEITLVTNKQVQQPVMDRYQQHGMAPLTQEQKPVAKVVNDNAPQTAKEPDYLDIPAFLRRQAR , β-galactosidase activity: 155 Miller units
